Test system: G. lamblia trophozoites (luciferase expressing, WBC6)
test method notes: microbe, parasite or virus in culture
Assay type: cell-based, Giardia lamblia
condition set: initial Pathogen Box screen, single concentration 16 µM, inhibition compared to DMSO wells
Quick rule for you: Giardia (16 uM) Mean % inhibition at 30% or higher means class 1, lower means class 0.

Query :: Reported Giardia (16 uM) Mean % inhibition reaches at least 30% for O=C(NC1CCN(c2ccnc3ccccc23)C1)c1cccc(C(F)(F)F)c1 (stereo not drawn) [MMV023388] ?
Result :: class 1

Query :: Reported Giardia (16 uM) Mean % inhibition reaches at least 30% for CCc1ccc(S(=O)(=O)Nc2cc(CN3CCN(CCC(C)C)CC3)ccc2C)cc1 [MMV688124] ?
Result :: class 1

Query :: Reported Giardia (16 uM) Mean % inhibition reaches at least 30% for Cc1cc(Cl)c(S(=O)(=O)N2CCCC2)cc1OCC(=O)NC1CCCCC1 [MMV006833] ?
Result :: class 0

Query :: Reported Giardia (16 uM) Mean % inhibition reaches at least 30% for CC(C)(C)c1cc(C(=O)Nc2cccnc2)cc(C(=O)Nc2cccnc2)c1 [MMV020982] ?
Result :: class 0

Query :: Reported Giardia (16 uM) Mean % inhibition reaches at least 30% for NCCN(C(=O)c1ccc(Cl)cc1Cl)c1ccc(OCc2ccc(Cl)cc2)cc1 [MMV688371] ?
Result :: class 1

Query :: Reported Giardia (16 uM) Mean % inhibition reaches at least 30% for CCCn1nnc(NC(=O)COc2ccc(C3CCCCC3)cc2)n1 [MMV676597] ?
Result :: class 1

Query :: Reported Giardia (16 uM) Mean % inhibition reaches at least 30% for O=C(Nc1ccc(N2CCNCC2)cc1)c1ccn2ncc(-c3cccc(Cl)c3)c2n1 [MMV022478] ?
Result :: class 1

Query :: Reported Giardia (16 uM) Mean % inhibition reaches at least 30% for O=S(=O)(c1ccc(Cl)cc1)N1CCN(C(=S)NCc2ccco2)CC1 [MMV000858] ?
Result :: class 0

Query :: Reported Giardia (16 uM) Mean % inhibition reaches at least 30% for Nc1ncnc2c1ncn2[C@@H]1O[C@H](COS(=O)(=O)NC(=O)c2ccccc2O)[C@@H](O)[C@H]1O [MMV687700] ?
Result :: class 0

Query :: Reported Giardia (16 uM) Mean % inhibition reaches at least 30% for COc1ccc(C2=NCCN2)cc1-c1cn(-c2cccc(C3=NCCN3)c2)nn1 [MMV688547] ?
Result :: class 1

Query :: Reported Giardia (16 uM) Mean % inhibition reaches at least 30% for CC(C)C(NC(=O)Cc1cccc2ccccc12)C(=O)Nc1cccc(C#N)c1 (stereo not drawn) [MMV020591] ?
Result :: class 0

Query :: Reported Giardia (16 uM) Mean % inhibition reaches at least 30% for Cc1cc(NC(=O)c2ccc(S(=O)(=O)N(Cc3ccccc3)C(C)C)cc2)no1 [MMV007133] ?
Result :: class 0

Query :: Reported Giardia (16 uM) Mean % inhibition reaches at least 30% for COc1cccc(OCC(=O)c2ccc(Br)cc2)c1 [MMV676379] ?
Result :: class 1

Query :: Reported Giardia (16 uM) Mean % inhibition reaches at least 30% for O=C(NC1=NCCS1)c1sc2cc(F)ccc2c1Cl [MMV676584] ?
Result :: class 1

Query :: Reported Giardia (16 uM) Mean % inhibition reaches at least 30% for CN1CCC(c2cc(-c3ccncc3)c(-c3ccc(F)cc3)[nH]2)CC1 [MMV688703] ?
Result :: class 0

Query :: Reported Giardia (16 uM) Mean % inhibition reaches at least 30% for O=C(NCCN1CCCC1)c1cc(NCCN2CCOCC2)nc2ccc(Cl)cc12 [MMV634140] ?
Result :: class 0

Query :: Reported Giardia (16 uM) Mean % inhibition reaches at least 30% for COc1ccc(Oc2ccc([C@@H](C)N(C)c3ncc4c(N)nc(N)nc4n3)cc2)cc1 [MMV690102] ?
Result :: class 1

Query :: Reported Giardia (16 uM) Mean % inhibition reaches at least 30% for CC(C)c1ncc(-c2ccncc2)c(C2CCC(CNC(=O)c3cccnc3)CC2)n1 (stereo not drawn) [MMV676442] ?
Result :: class 0

Query :: Reported Giardia (16 uM) Mean % inhibition reaches at least 30% for CCN(CC)S(=O)(=O)c1ccc(C(=O)Nc2cc(C)nn2-c2nc(C)c(C)c(=O)[nH]2)cc1 [MMV595321] ?
Result :: class 0

Query :: Reported Giardia (16 uM) Mean % inhibition reaches at least 30% for Nc1c2c(nc3sc4c(c13)CCCC4)CCCC2 [MMV676588] ?
Result :: class 0

Query :: Reported Giardia (16 uM) Mean % inhibition reaches at least 30% for COC(=O)c1cccc2oc(-c3cccc(OC)c3NC(=O)c3cc(-c4ccccc4)on3)nc12 [MMV676186] ?
Result :: class 0

Query :: Reported Giardia (16 uM) Mean % inhibition reaches at least 30% for CC(C)(C)CN1C(=O)C(c2ccccc2)(c2ccccc2)N=C1N [MMV026550] ?
Result :: class 1

Query :: Reported Giardia (16 uM) Mean % inhibition reaches at least 30% for CN(C)CCNC(=O)N1CCCN(c2ncnc3cc(-c4ccccc4)sc23)CC1 [MMV024195] ?
Result :: class 1

Query :: Reported Giardia (16 uM) Mean % inhibition reaches at least 30% for CCC(NC(=O)c1ccccc1NC(=O)c1ccc(C)cc1)C(=O)OC (stereo not drawn) [MMV019551] ?
Result :: class 0

Query :: Reported Giardia (16 uM) Mean % inhibition reaches at least 30% for Cc1ccc2oc(-c3cc(NC(=O)Cc4ccccc4)ccc3Cl)nc2c1 [MMV676509] ?
Result :: class 0

Query :: Reported Giardia (16 uM) Mean % inhibition reaches at least 30% for CCNC(=O)C(C)Nc1nc(-c2cccnc2)nc2sc(C)c(C)c12 (stereo not drawn) [MMV1037162] ?
Result :: class 0

Query :: Reported Giardia (16 uM) Mean % inhibition reaches at least 30% for CNC(=O)CNc1nc(-c2ccccn2)nc2scc(-c3ccccc3)c12 [MMV1029203] ?
Result :: class 0

Query :: Reported Giardia (16 uM) Mean % inhibition reaches at least 30% for Clc1ccc(CCNc2cc(-c3ccccc3)nc3ncnn23)cc1 [MMV688889] ?
Result :: class 1

* * *

System: G. lamblia trophozoites (luciferase expressing, WBC6)
test method notes: microbe, parasite or virus in culture
Format: cell-based, Giardia lamblia
condition set: initial Pathogen Box screen, single concentration 16 µM, inhibition compared to DMSO wells
Description: Trophozoites were harvested by chilling cultures on ice for 30 minutes and plated by adding 150 μL per well at a concentration of 250,000 cells/mL. Metronidazole (Sigma, St. Louis, MO) was used as a control and was serially diluted 1:2 from 40 μM to 0.04 μM and 150 μL was added to the 150 μL of the G. lamblia trophozoites. Plates were covered in plastic low-evaporation lids, sealed in individual anaerobic BD GasPak Bio-Bags (Becton Dickinson, San Jose, CA) and incubated at 37 °C for 24 hours. […]
observable: Giardia (16 uM) Mean % inhibition (%)
Number only, in %; omit the unit.

Query :: Would you kindly share the measured Giardia (16 uM) Mean % inhibition for FC(F)(F)c1ccc(N(c2cccnc2)C2CCN(c3ccc(C(F)(F)F)cn3)CC2)cc1 ?
Result :: 11

Query :: Would you kindly share the measured Giardia (16 uM) Mean % inhibition for C[C@H]1COC2(CCN(c3nc(=O)c4cc(C(F)(F)F)cc([N+](=O)[O-])c4s3)CC2)O1 ?
Result :: 77

Query :: Would you kindly share the measured Giardia (16 uM) Mean % inhibition for COc1ccc(-c2nnc3ccc(-c4cccc(C(C)C)c4)cn23)cc1OC ?
Result :: 26

Query :: Would you kindly share the measured Giardia (16 uM) Mean % inhibition for CCc1ccc([C@@H]2C[C@H](C(F)(F)F)n3ncc(C(=O)NCc4ccc(OC)cc4)c3N2)cc1 ?
Result :: 23

Query :: Would you kindly share the measured Giardia (16 uM) Mean % inhibition for c1ccc(C[C@@H]2CN(c3nccc(Oc4ccc(-n5ccnc5)cc4)n3)CCN2)cc1 ?
Result :: 24

Query :: Would you kindly share the measured Giardia (16 uM) Mean % inhibition for COc1ccc(-c2cncc3ccc(C(=O)NCCCn4ccnc4)nc23)cc1 ?
Result :: 19

* * *

Test system: G. lamblia trophozoites (luciferase expressing, WBC6)
test method notes: microbe, parasite or virus in culture
Type: cell-based, Giardia lamblia
condition set: initial Pathogen Box screen, single concentration 16 µM, inhibition compared to DMSO wells
observable: Giardia (16 uM) Mean % inhibition (%)
Number only, in %; omit the unit.

Query :: G. lamblia trophozoites (luciferase expressing, WBC6) / Giardia (16 uM) Mean % inhibition / OCc1ccc(-c2cncc(Nc3cccc(Cl)c3)c2)cc1 : value?
Result :: 39

Query :: G. lamblia trophozoites (luciferase expressing, WBC6) / Giardia (16 uM) Mean % inhibition / CCOC(=O)c1cc(-c2csc(Nc3c(C)cc(C)cc3C)n2)on1 : value?
Result :: 31

Query :: G. lamblia trophozoites (luciferase expressing, WBC6) / Giardia (16 uM) Mean % inhibition / COc1ccc2nc(C)cc(OCC(=O)NCc3ccccc3)c2c1 : value?
Result :: 16

Query :: G. lamblia trophozoites (luciferase expressing, WBC6) / Giardia (16 uM) Mean % inhibition / O=C(Nc1ccc(C(F)(F)F)c(C(F)(F)F)c1)c1cc(Cl)ccc1O : value?
Result :: 97

Query :: G. lamblia trophozoites (luciferase expressing, WBC6) / Giardia (16 uM) Mean % inhibition / Nc1ncc(-c2cn[nH]c2)cc1-c1nc2cc(Cl)cnc2[nH]1 : value?
Result :: 38

Query :: G. lamblia trophozoites (luciferase expressing, WBC6) / Giardia (16 uM) Mean % inhibition / CNC(=O)c1nn(C)c2c1C(C)(C)Cc1cnc(Nc3ccc(N4CCN(C)CC4)cc3)nc1-2 : value?
Result :: 94
